molecular target: Kappa-type opioid receptor (Homo sapiens, UniProt P41145); assay: Agonist activity at huma kappa opioid receptor expressed in CHO cells assessed as […] of [35S]GTP-gamma-S binding
Sequence (P41145 whole entry): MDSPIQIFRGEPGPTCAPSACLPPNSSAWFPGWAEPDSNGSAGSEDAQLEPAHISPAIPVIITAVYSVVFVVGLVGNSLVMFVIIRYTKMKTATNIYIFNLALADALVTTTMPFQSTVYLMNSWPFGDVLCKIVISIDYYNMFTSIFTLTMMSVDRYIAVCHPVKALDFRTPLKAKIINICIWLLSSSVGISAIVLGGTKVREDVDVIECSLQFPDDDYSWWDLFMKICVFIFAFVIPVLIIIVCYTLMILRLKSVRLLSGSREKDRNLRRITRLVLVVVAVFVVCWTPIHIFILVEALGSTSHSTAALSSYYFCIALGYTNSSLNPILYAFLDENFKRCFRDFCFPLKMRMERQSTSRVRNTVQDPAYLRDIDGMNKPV
pEC50: −log10 of the molar value.
Reported pEC50 is given for each of the following compounds.
result.type: pEC50

>>> measured("CCNC(=O)Oc1ccc2c(c1)C13CCCCC1C(C2)N(CC1CC1)CC3 (single isomer, unassigned; (-))")
8.92
>>> measured("CNC(=O)Oc1ccc2c(c1)C13CCCCC1C(C2)N(CC1CC1)CC3 (single isomer, unassigned; (-))")
7.80
>>> measured("CCNC(=O)Oc1ccc2c(c1)C13CCCCC1C(C2)N(CC1CCC1)CC3 (centres undefined)")
7.64
>>> measured("CNC(=O)Oc1ccc2c(c1)C13CCCCC1C(C2)N(CC1CCC1)CC3 (single isomer, unassigned; (-))")
8.02
>>> measured("O=C(Nc1ccccc1)Oc1ccc2c(c1)C13CCCCC1C(C2)N(CC1CC1)CC3 (centres undefined)")
9.42
>>> measured("O=C(Nc1ccccc1)Oc1ccc2c(c1)C13CCCCC1C(C2)N(CC1CCC1)CC3 (single isomer, unassigned; (-))")
8.66
>>> measured("CNC(=O)Oc1ccc2c(c1)C13CCCCC1C(C2)N(C)CC3 (centres undefined)")
7.54
>>> measured("O=C(NCc1ccccc1)Oc1ccc2c(c1)C13CCCCC1C(C2)N(CC1CCC1)CC3 (single isomer, unassigned; (-))")
8.33
>>> measured("O=C(NCc1ccccc1)Oc1ccc2c(c1)C13CCCCC1C(C2)N(CC1CC1)CC3 (single isomer, unassigned; (-))")
8.96

Cited source: ChEMBL document CHEMBL1144610
